Assay Details: self-splicing fitness, log relative to wild type (ln ratio); higher = more splicing; Tetrahymena group I intron in knt gene, E. coli kanamycin selection, DiMSum; sequences stand for … in CUCUCU…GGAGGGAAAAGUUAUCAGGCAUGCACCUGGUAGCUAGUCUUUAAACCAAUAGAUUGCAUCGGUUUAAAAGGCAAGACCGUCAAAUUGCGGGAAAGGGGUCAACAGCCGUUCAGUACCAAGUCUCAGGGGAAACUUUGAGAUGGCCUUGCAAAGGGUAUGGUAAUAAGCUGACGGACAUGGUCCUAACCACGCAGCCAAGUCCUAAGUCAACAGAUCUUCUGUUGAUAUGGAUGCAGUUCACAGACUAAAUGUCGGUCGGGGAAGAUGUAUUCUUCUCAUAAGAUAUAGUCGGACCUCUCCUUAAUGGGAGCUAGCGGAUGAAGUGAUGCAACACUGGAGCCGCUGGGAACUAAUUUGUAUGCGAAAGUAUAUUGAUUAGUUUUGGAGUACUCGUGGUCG;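 note: selection with 25 µg/mL kanamycin versus none on LB agar overnight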
Condition Parameters: 37 °C
Property Name: self-splicing fitness (ln)
Response field accepts a number only; no unit should be typed.

State the recorded self-splicing fitness (ln) for this entry: GUAAAGCAAUAUUACGCGUA -0.105

Entry to check: CUAAAGCAAUAUUACGGUGG -0.0443

Entry to check: UCGUAGCAAUAUUACGGUAA 0.253

Entry to check: AUAAAGCAAUAUUACGCUAA -0.736

Entry to check: UCACAGCAAUAUUACGGGAU -2.36

Entry to check: UGCGAGCAAUAUUACGGUAU -2.32

Entry to check: GCAAAGCAAUAUUACGUUGC -1.88

Entry to check: AACAAGCAAUAUUACGCGCU -0.454

Entry to check: GAAUAGCAAUAUUACGAUAG -1.47

Entry to check: CCCGAGCAAUAUUACGAUUC -2.13

Entry to check: GAGCAGCAAUAUUACGUGAU -0.968

Entry to check: AUUAAGCAAUAUUACGCGAA -0.882

Entry to check: GUCCAGCAAUAUUACGAGAG 0.117

Entry to check: CCGCAGCAAUAUUACGAUUC -3.03

Entry to check: AUCGAGCAAUAUUACGGACU -0.737

Entry to check: GUCAAGCAAUAUUACGUCAG -3.26

* * *

Assay Details: self-splicing fitness, log relative to wild type (ln ratio); higher = more splicing; Tetrahymena group I intron in knt gene, E. coli kanamycin selection, DiMSum; sequences stand for … in CUCUCU…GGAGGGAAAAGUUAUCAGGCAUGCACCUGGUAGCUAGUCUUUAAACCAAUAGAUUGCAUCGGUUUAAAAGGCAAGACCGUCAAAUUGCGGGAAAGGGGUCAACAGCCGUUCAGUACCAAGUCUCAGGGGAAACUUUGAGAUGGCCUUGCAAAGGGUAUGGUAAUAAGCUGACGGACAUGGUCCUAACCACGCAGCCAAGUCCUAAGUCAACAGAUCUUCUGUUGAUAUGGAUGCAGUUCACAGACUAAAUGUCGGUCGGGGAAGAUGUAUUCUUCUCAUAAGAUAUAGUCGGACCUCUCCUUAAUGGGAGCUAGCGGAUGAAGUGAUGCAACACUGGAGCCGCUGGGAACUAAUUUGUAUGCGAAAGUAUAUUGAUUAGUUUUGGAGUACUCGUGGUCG
Condition Parameters: 30 °C
Task for the reader: assign each of the following sequences its reported self-splicing fitness (ln).
Response field accepts a number only; no unit should be typed.

State the recorded self-splicing fitness (ln) for this entry: GAGAAGCAAUAUUACGGAUC -2.34

Entry to check: UAUAAGCAAUAUUACGUUCG -0.846

Entry to check: UGCAAGCAAUAUUACGUAGG -3.31

Entry to check: AGUUAGCAAUAUUACGAGCA -0.518

Entry to check: ACCGAGCAAUAUUACGGUCG -3.22

Entry to check: GAGAAGCAAUAUUACGGCCA -0.417

Entry to check: CUCAAGCAAUAUUACGUGAA -0.683

Entry to check: UCGUAGCAAUAUUACGCUCU -3.62

Entry to check: GUUUAGCAAUAUUACGCCCG -3.02

Entry to check: CCACAGCAAUAUUACGGCAU -3.72

Entry to check: UAUCAGCAAUAUUACGAUCA -0.115

Entry to check: GCUUAGCAAUAUUACGUGGU -2.81

Entry to check: GCAAAGCAAUAUUACGCGAA -1.55

Entry to check: CACAAGCAAUAUUACGAAGC -4.44

Entry to check: GUGCAGCAAUAUUACGACCU -1.51

Entry to check: GACUAGCAAUAUUACGAACA -1.02

* * *

Assay Details: self-splicing fitness, log relative to wild type (ln ratio); higher = more splicing; Tetrahymena group I intron in knt gene, E. coli kanamycin selection, DiMSum; sequences stand for … in CUCUCU…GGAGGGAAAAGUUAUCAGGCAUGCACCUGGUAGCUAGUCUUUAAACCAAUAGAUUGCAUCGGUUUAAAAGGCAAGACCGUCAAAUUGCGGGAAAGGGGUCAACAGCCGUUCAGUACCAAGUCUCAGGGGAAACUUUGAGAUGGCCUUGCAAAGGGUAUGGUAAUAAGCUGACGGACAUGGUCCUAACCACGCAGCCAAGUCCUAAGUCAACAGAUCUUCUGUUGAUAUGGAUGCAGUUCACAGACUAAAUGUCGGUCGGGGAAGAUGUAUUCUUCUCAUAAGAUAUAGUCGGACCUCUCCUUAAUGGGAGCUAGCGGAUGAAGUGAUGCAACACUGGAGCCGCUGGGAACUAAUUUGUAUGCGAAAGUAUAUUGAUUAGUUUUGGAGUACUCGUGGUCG
Condition Parameters: 30 °C
Please mark YES if the recorded self-splicing fitness (ln) is equal to or greater than -2, and NO if it falls below.

Decide: is the reported value of self-splicing fitness (ln) for UAAGAGCAAUAUUACGACCC equal to or greater than -2? NO

Entry to check: AUAAAGCAAUAUUACGGUCA YES

Entry to check: CCUAAGCAAUAUUACGCCAA NO

Entry to check: GAGCAGCAAUAUUACGGGAA NO

Entry to check: GCUCAGCAAUAUUACGCCCU YES

Entry to check: GUCAAGCAAUAUUACGGAAC NO

Entry to check: AUAGAGCAAUAUUACGACAG NO

Entry to check: ACCAAGCAAUAUUACGGAAG NO

Entry to check: GACGAGCAAUAUUACGAGCG YES

Entry to check: CGGCAGCAAUAUUACGGAAG YES

Entry to check: AGUAAGCAAUAUUACGAUUA YES

Entry to check: AAUGAGCAAUAUUACGUUCC NO

Entry to check: CUGGAGCAAUAUUACGCAAG NO

Entry to check: AGUUAGCAAUAUUACGGCCA YES

Entry to check: GCUGAGCAAUAUUACGUGUU NO

Entry to check: CAAAAGCAAUAUUACGGAAG YES

Entry to check: UACUAGCAAUAUUACGCCCA YES

Entry to check: UGGAAGCAAUAUUACGCAUA YES

Entry to check: GGACAGCAAUAUUACGUAGA YES

Entry to check: CAUUAGCAAUAUUACGCGCA YES

Entry to check: AAUGAGCAAUAUUACGGUCC NO

Entry to check: ACGAAGCAAUAUUACGCUGA YES

Entry to check: GCGGAGCAAUAUUACGCGUG NO

Entry to check: UGAUAGCAAUAUUACGUGAC NO

Entry to check: UGCUAGCAAUAUUACGGACG YES

Entry to check: AGAAAGCAAUAUUACGCGGG NO

Entry to check: UCAUAGCAAUAUUACGCCUC NO

Entry to check: GCACAGCAAUAUUACGUCUA YES

Entry to check: GAACAGCAAUAUUACGUGAC YES

Entry to check: CUCCAGCAAUAUUACGCGUG NO

Entry to check: GGUUAGCAAUAUUACGGCUA YES

Entry to check: AAGAAGCAAUAUUACGAGCC NO

* * *

Task for the reader: assign each of the following sequences its reported self-splicing fitness (ln).
Assay Details: self-splicing fitness, log relative to wild type (ln ratio); higher = more splicing; Tetrahymena group I intron in knt gene, E. coli kanamycin selection, DiMSum; sequences stand for … in CUCUCU…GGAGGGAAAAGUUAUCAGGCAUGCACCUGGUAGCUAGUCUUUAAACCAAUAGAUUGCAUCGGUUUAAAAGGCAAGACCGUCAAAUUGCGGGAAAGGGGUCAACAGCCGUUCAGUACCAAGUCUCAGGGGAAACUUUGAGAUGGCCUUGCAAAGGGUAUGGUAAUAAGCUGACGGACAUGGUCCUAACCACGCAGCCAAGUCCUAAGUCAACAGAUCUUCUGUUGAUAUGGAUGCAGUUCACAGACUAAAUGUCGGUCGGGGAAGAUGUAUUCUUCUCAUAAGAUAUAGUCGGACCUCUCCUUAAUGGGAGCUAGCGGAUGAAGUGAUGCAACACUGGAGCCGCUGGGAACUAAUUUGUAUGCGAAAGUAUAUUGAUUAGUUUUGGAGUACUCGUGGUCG
Condition Parameters: 37 °C
Response field accepts a number only; no unit should be typed.

State the recorded self-splicing fitness (ln) for this entry: ACCAAGCAAUAUUACGGGAC -2.05

Entry to check: AAUCAGCAAUAUUACGCAGC -0.207

Entry to check: GAUUAGCAAUAUUACGUGGC -2.3

Entry to check: CUAUAGCAAUAUUACGAUUG 0.313

Entry to check: AAGUAGCAAUAUUACGACGU 0.403

Entry to check: AACCAGCAAUAUUACGCCGA -0.169

Entry to check: GCACAGCAAUAUUACGUCCA -0.96

Entry to check: GCAGAGCAAUAUUACGGUAA -2.36

Entry to check: ACGGAGCAAUAUUACGGACG -1.17

Entry to check: GCGAAGCAAUAUUACGAAGG -0.295

Entry to check: UUAUAGCAAUAUUACGUUCA 0.00672

Entry to check: AAAAAGCAAUAUUACGCCCG 0.243

Entry to check: CACGAGCAAUAUUACGGACA -2.9

Entry to check: UAAUAGCAAUAUUACGAAUU -2.58

Entry to check: AGAUAGCAAUAUUACGAUUA -0.852

Entry to check: ACUUAGCAAUAUUACGGAAG -1.25

Entry to check: CAUUAGCAAUAUUACGCCAA -2.63

Entry to check: GCCUAGCAAUAUUACGAGAU -0.45

Entry to check: GGGGAGCAAUAUUACGAUCG -0.888

Entry to check: ACGCAGCAAUAUUACGAUCU 0.356

Entry to check: CCAUAGCAAUAUUACGUAUG -2.19

Entry to check: GGAGAGCAAUAUUACGUAAC -0.596

Entry to check: GCCUAGCAAUAUUACGUAGA 0.22

Entry to check: UGGCAGCAAUAUUACGUGGU -2.99

Entry to check: GGUAAGCAAUAUUACGCACA 0.101

Entry to check: AAAAAGCAAUAUUACGCGAA -1.19

Entry to check: GUAAAGCAAUAUUACGUGCU -0.431

Entry to check: UGCCAGCAAUAUUACGUGCU -1.48

Entry to check: CUUGAGCAAUAUUACGCUGA -1.9

Entry to check: CGGCAGCAAUAUUACGCCCA -0.0939

Entry to check: CGGUAGCAAUAUUACGUCUA -0.163

Entry to check: CAUCAGCAAUAUUACGGCAU -1.66

Entry to check: GCUAAGCAAUAUUACGAUGG -0.4

Entry to check: CGAAAGCAAUAUUACGGUUC -2.33
